Entry source: paper PMC7463651

- Assay Protocol: Pharmacokinetic assessments in plasma, phase I/Ib study
- Assay type: in vivo, human
- Condition: human, plasma, oral, 800 mg, 800 mg BID, C2D1; geometric mean
Experimental Endpoint: Cmax (ng/mL)

1. CC[C@H](Nc1ncnc2[nH]cnc12)c1oc2ccccc2c(=O)c1-c1cccc(F)c1 [Tenalisib]; 3230

----------
- Assay Protocol: Pharmacokinetic assessments in plasma, phase I/Ib study
- Assay type: in vivo, human
- Condition: human, plasma, oral, 800 mg, 800 mg BID, C2D1; geometric mean; read-out: t1/2 (converted)
Experimental Endpoint: half-life (h)

1) CC[C@H](Nc1ncnc2[nH]cnc12)c1oc2ccccc2c(=O)c1-c1cccc(F)c1 [Tenalisib]; 2.6
